Assay Details: MRP1 drug-resistance reversers in H69AR cells – cell-based, doxorubicin co-treatment, pilot screen (AID 601)
Measurement Parameters: H69AR cells + 2 uM doxorubicin, CellTiter-Glo, 72 h; at 10 µM; stronger effect = higher value
This listing pairs compounds with measured differential viability (reversal).
Give your result in % as a bare value.

> print(dat)
                                   compound                         value.kind  test.result
1  O=c1oc2c3c4c(cc2cc1-c1nc2ccccc2[nH]1)CCCN4CCC3  differential viability (reversal)         2.58

Quick check: differential viability (reversal) of Cc1cc(C)nc(SCc2ccc3nonc3c2)n1 ?
15.7

Quick check: differential viability (reversal) of Brc1ccc2ncnc(Nc3ccc(N4CCOCC4)cc3)c2c1 ?
-14.1

Quick check: differential viability (reversal) of Cc1cccc(OCc2nc(C#N)c(NCCN(C)C)o2)c1 ?
-2.44

Quick check: differential viability (reversal) of Cc1cccc(OCCNC(=O)c2ncn[nH]2)c1 ?
3.36

Quick check: differential viability (reversal) of CC1(C)CC(=O)N(CC(=O)NCc2ccccc2)c2ccccc2S1(=O)=O ?
-8.55

Quick check: differential viability (reversal) of O=C(NCCN1C(=O)C2C3C=CC(C3)C2C1=O)N1CCCCC1 (configuration not stated) ?
6.97

Quick check: differential viability (reversal) of CCOC(=O)c1ccc(NS(=O)(=O)c2ccc3c(c2)oc(=O)n3C)cc1 ?
7.4

Quick check: differential viability (reversal) of O=C(O)CC(C(=O)Nc1cccc(C(F)(F)F)c1)C1CCCO1 (configuration not stated) ?
3.26

Quick check: differential viability (reversal) of CCN(CC)C(=O)COC(=O)c1ccc(O)cc1 ?
-5.45

Quick check: differential viability (reversal) of COc1ccc(C(=O)c2coc3ccc(O)c(CN4CCCCC4)c23)cc1 ?
-0.2

Quick check: differential viability (reversal) of COC(=O)C(C)Sc1nc2c(c(=O)n1-c1ccccc1)SCC2 (configuration not stated) ?
-12.1

Quick check: differential viability (reversal) of CCS(=O)(=O)c1nc2ccccc2n1Cc1ccccc1Cl ?
-9.51

Quick check: differential viability (reversal) of Cc1nc2ccc(S(=O)(=O)NC(C(=O)N3CCCC3)C(C)C)cc2s1 (configuration not stated) ?
17.8

Quick check: differential viability (reversal) of COc1cccc(C2C(C(=O)c3ccc(C)o3)=C(O)C(=O)N2CCCN(C)C)c1 (configuration not stated) ?
12.6

Quick check: differential viability (reversal) of CC(C)(C)NC(=O)CC(CC(=O)O)c1ccccc1 (configuration not stated) ?
-8.51

Quick check: differential viability (reversal) of Cc1[nH]nc2c1C(C1CC=CCC1)C(C#N)=C(N)O2 (configuration not stated) ?
0.85

====

Assay Details: yeast transport mutant growth inhibition pilot in 384-well plates, post-Golgi transport modulator project (AID 636)
Measurement Parameters: absorbance 615 nm, about 18 h, stronger effect = higher value
Value Kind: inhibition (%)
Give your result in % as a bare value.

// worked examples, inhibition included
> print(dat)
                                   compound  display.unit  test.result
1  COC(=O)c1cc(OC)c(OC)cc1NC(=O)c1ccc(Br)o1             %         0.13
2  COc1cc(C(O)c2nc3ccccc3n2C)cc(OC)c1OC (stereo not drawn)             %         1.95

Note: attention shifts to another entry.
Quick check: inhibition of O=C(NCCN1C(=O)C2C3C=CC(C3)C2C1=O)N1CCOCC1 (stereo not drawn) ?
0.67

====

Assay Details: H69AR cell proliferation blockers – human, duplicate replicates, primary screen (AID 580);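 also: 100% = mean luminescence of untreated wells and 0% = no signal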
Measurement Parameters: H69AR lung tumor cells viability, ATP luminescence, 72 h; at 10 µM
Calls of active or inactive are those of the source.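 How the source made its calls: active means viability at or under a set limit in both replicates, limit being median viability minus 3 SD (cut at about 48% in these data, passing the limit was not always enough); inconclusive means at or under the limit in just one replicate; inactive means at or above the limit in both replicates.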
Entry note: the call must match one of 1 for active, 0 for inactive

> print(dat)
                                   molecule  assigned.category
1  COc1ccc(S(=O)(=O)NCc2ccc3c(c2)OCO3)cc1C(=O)O                  0
2             c1ccc(-c2nnc(CSc3nncs3)o2)cc1                  0

Dear all, I need the recorded test outcome for COC(=O)c1cccc(NC(=O)C2COc3ccccc3O2)c1C (stereo not drawn) , thank you.
0

Dear all, I need the recorded test outcome for O=C(c1ccc2snnc2c1)N1CCOCC1 , thank you.
0

Dear all, I need the recorded test outcome for O=C(CSC1=NCCS1)NCc1ccco1 , thank you.
0

Dear all, I need the recorded test outcome for CCc1ccc(N(CC(=O)NC2CCCC2)S(=O)(=O)c2c(C)noc2C)cc1 , thank you.
0

Dear all, I need the recorded test outcome for CN1C(=O)C(O)(CC(=O)c2ccc(F)cc2)c2cc(Br)ccc21 (stereo not drawn) , thank you.
1

Dear all, I need the recorded test outcome for COc1ccc(S(=O)(=O)N2CCN(c3ccc(C)cc3C)CC2)cc1OC , thank you.
0

Dear all, I need the recorded test outcome for Cn1c(=O)c2c(nc(SCCCC#N)n2Cc2c(F)cccc2Cl)n(C)c1=O , thank you.
0

Dear all, I need the recorded test outcome for CCOc1ccc(N2CC(C(=O)Nc3ccccc3OC)CC2=O)cc1 (stereo not drawn) , thank you.
0

Dear all, I need the recorded test outcome for Cc1ccc(-n2c3c(cc(C(=O)O)c2=O)C(=O)CC(C)(C)C3)cc1 , thank you.
0

Dear all, I need the recorded test outcome for CCOC(=O)c1sc2nc(NC(=O)C3CCCCC3)sc2c1C , thank you.
0

Dear all, I need the recorded test outcome for O=C1CN(c2nc3ccccc3n3cnnc23)CC(=O)N1CCc1ccccc1 , thank you.
0

Dear all, I need the recorded test outcome for N#C/C(C(=O)N1CCOCC1)=C1/SC=C(c2ccccc2)N1c1ccccc1 , thank you.
0

Dear all, I need the recorded test outcome for CC1CCCN(C(=O)C23CCC(C)(C(=O)C2)C3(C)C)C1 (stereo not drawn) , thank you.
0

Dear all, I need the recorded test outcome for CCN1CCN(Cc2ccc(NC(=O)Nc3ccccc3)cc2)CC1 , thank you.
0

====

Assay Details: RAM signaling pathway blockade in yeast – S. cerevisiae, Pdr1DBD-CYC8 efflux-inhibited sensitized strain, primary screen (AID 1298);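 also: 0% = DMSO untreated cells without growth and 100% = 10 µM 1-NA-PP1 full growth; higher means more yeast growth rescued from 5-FOA killing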
Measurement Parameters: S. cerevisiae cbk1-as DSE1-URA3 strain, 5-FOA growth OD615, 2 d; at 50 µM; stronger effect = higher value
Value Kind: RAM network inhibition (%)
Give your result in % as a bare value.

// worked examples, RAM network inhibition included
> print(dat)
                                   compound  display.unit  test.result
1  COc1ccc(-n2c(Cc3cccn3C)nnc2SCC(=O)Nc2ccc(Cl)cc2)cc1             %         5.81
2  COc1ccc(S(=O)(=O)N2CCC(C(=O)N3CCOCC3)CC2)cc1OC             %         2.43
3  CCOc1ccc(NC(=O)C(C)Sc2nnc(C)n2C)cc1 (configuration not stated)             %        -0.63
4  COc1ccc(C(=O)N2CCC(C(=O)Nc3cccc(C)c3)CC2)cc1OC             %         2.75

Quick check: RAM network inhibition of COc1ccc2c(c1OC)C(=O)OC2CC(=O)c1ccc(O)cc1 (configuration not stated) ?
4.28

Quick check: RAM network inhibition of NC(=O)C1CCN(C(=O)c2cc3n(n2)C(C(F)(F)F)CC(c2ccco2)N3)CC1 (configuration not stated) ?
0.98

Quick check: RAM network inhibition of O=C(C1CC1)N1CCc2cc(Br)cc(S(=O)(=O)N3CCN(c4ccccn4)CC3)c21 ?
5.52

Quick check: RAM network inhibition of CCN(CCNC(=O)C1CCN(S(=O)(=O)c2cccc3cccnc23)CC1)c1ccccc1 ?
5.91

====

Study System: Receptor tyrosine-protein kinase erbB-2 (Homo sapiens)
Assay Details: Her2 expression decrease, cell viability multiplex – SKBR3 breast tumor cells, AlphaScreen, ATP viability, primary screen (AID 461);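 also: lower value means less Her2 protein in the cells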
Measurement Parameters: 18-24 h, at 10 µM, stronger effect = lower value
For each record, check the reported Her2 level: if it is below 90% write true, else write false.

Reference set, count: 5
> print(dat)
                                   molecule                              study.system  assigned.category
1  COC(=O)C1=C(N)OC2=C(C(=O)CCC2)C1c1cccs1 (stereo unspecified)  Receptor tyrosine-protein kinase erbB-2 (Homo sapiens)               true
2      COc1ccccc1-c1nnc(SCC(=O)NC2CCCCC2)o1  Receptor tyrosine-protein kinase erbB-2 (Homo sapiens)               true
3  CCOc1ccccc1NC(=O)C1CCCN(S(=O)(=O)c2cccc3cccnc23)C1 (stereo unspecified)  Receptor tyrosine-protein kinase erbB-2 (Homo sapiens)              false
4  Cn1c(=O)oc2cc(S(=O)(=O)N3CCCC(C(=O)NCC4COc5ccccc5O4)C3)ccc21 (stereo unspecified)  Receptor tyrosine-protein kinase erbB-2 (Homo sapiens)               true
5  O=C(Nn1cnnc1)C1Cc2ccccc2CN1S(=O)(=O)c1ccc(F)cc1 (stereo unspecified)  Receptor tyrosine-protein kinase erbB-2 (Homo sapiens)              false

Please state whether Her2 level is below 90% for CCCc1nnc(NC(=O)NCCN2C(=O)C3C4C=CC(C4)C3C2=O)s1 (stereo unspecified)
false

Please state whether Her2 level is below 90% for Cc1cc(C)c(C#N)c(SCC(=O)Nc2ccc(S(=O)(=O)Nc3onc(C)c3C)cc2)n1
false

Please state whether Her2 level is below 90% for COc1ccc(/C=N/O)cc1COc1ccc(NC(C)=O)cc1
false

Please state whether Her2 level is below 90% for CCOC(=O)C1CCN(Cc2ccc(F)c(Br)c2)CC1
false

Please state whether Her2 level is below 90% for COc1cccc(C2CC(=O)Nc3c2c(=O)n(C)c(=O)n3C)c1OC (stereo unspecified)
false

Please state whether Her2 level is below 90% for CCOCC(=O)Nc1nc2c(s1)C(=O)CC(C)(C)C2
false

Please state whether Her2 level is below 90% for Cc1cccc(OCc2nc(C#N)c(NCCN(C)C)o2)c1
true

Please state whether Her2 level is below 90% for CCOc1ccc(NC(=O)C(C)Sc2nnc(C)n2C)cc1 (stereo unspecified)
false

Please state whether Her2 level is below 90% for CN(C)c1ccc(C(=O)Nc2nnc(-c3ccc(Cl)cc3)o2)cc1
true

Please state whether Her2 level is below 90% for Cc1cccc(C2CC(c3ccccc3)Nc3nc(N)nn32)c1 (stereo unspecified)
false

Please state whether Her2 level is below 90% for COc1cc2c(cc1OC)CN(C(=O)CSc1nnc3scc(-c4ccccc4)n13)CC2
false

Please state whether Her2 level is below 90% for Cc1ccc(S(=O)(=O)C(C#N)c2nc3ccccc3nc2N2CCCCC2)cc1 (stereo unspecified)
false

Please state whether Her2 level is below 90% for CCOC(=O)c1ccccc1NC(=O)c1ccc2c(=O)n3c(nc2c1)CCCCC3
true

Please state whether Her2 level is below 90% for COc1ccc(NC(=O)CSc2nc3c(c(=O)n2-c2ccccc2OC)SCC3)cc1
false

Please state whether Her2 level is below 90% for Cc1noc(C(=O)Nc2ccc3c(c2)OCO3)c1Cl
true

Please state whether Her2 level is below 90% for Cc1nc2sc(C(c3cccs3)N3CCC(C(N)=O)CC3)c(O)n2n1 (stereo unspecified)
false

Please state whether Her2 level is below 90% for Cc1cc(C(N)=O)c2cc(Br)ccc2n1
false

Please state whether Her2 level is below 90% for CCOC(=O)N1CCC(NC(=O)C2CCCN(C(=O)c3cc4sccc4n3C)C2)CC1 (stereo unspecified)
false

Please state whether Her2 level is below 90% for CCN(CC)C(=O)COc1ccc2oc(C)c(C(=O)OC(C)C)c2c1
false

Please state whether Her2 level is below 90% for Cc1ccc(SCC(=O)NCCN2C(=O)CSC2=O)c(C)c1
false
